Molecular target: A2B adenosine receptor (Homo sapiens)
Assay: cAMP assay for adenosine receptor (HTRF), HEK-A2B
Details: HEK-A2B cells, agonist 70 nM NECA, read-out: A2B Functional Ki
pKi: −log10 of the molar value.
Listed next: entries and their corresponding pKi.

structureString	observedResult
CCCCn1cc(-c2nc3c([nH]2)c(=O)n(CCC)c2nccn32)cn1	> 8.00

IN: Give its pKi value. Item: CCCn1c(=O)c2[nH]c(-c3cnn(CC4CCC4)c3)nc2n2ccnc12
OUT: > 8.00

IN: Follow-up item: CCCn1c(=O)c2[nH]c(-c3cnn(C(C)C)c3)nc2n2ccnc12
OUT: > 8.00

IN: Follow-up item: CCCn1c(=O)c2[nH]c(-c3cnn(CCOC)c3)nc2n2ccnc12
OUT: 7.52 to 8.00

IN: Follow-up item: CCCn1c(=O)c2[nH]c(-c3cnn(CC(C)C)c3)nc2n2ccnc12
OUT: > 8.00

====

Target: A2B adenosine receptor (Homo sapiens)
Sequence (P29275 1-332): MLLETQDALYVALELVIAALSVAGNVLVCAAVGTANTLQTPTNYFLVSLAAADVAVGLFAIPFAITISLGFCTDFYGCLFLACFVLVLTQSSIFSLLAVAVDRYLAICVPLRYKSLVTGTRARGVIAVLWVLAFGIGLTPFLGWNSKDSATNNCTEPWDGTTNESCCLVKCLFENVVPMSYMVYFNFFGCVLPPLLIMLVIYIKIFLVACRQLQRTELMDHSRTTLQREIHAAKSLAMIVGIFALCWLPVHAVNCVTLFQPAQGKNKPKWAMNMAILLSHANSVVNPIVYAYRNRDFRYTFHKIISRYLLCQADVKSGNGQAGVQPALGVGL
Assay: cAMP assay for adenosine receptor (HTRF), HEK-A2B
Settings: HEK-A2B cells, agonist 70 nM NECA, read-out: A2B Functional Ki
pKi: −log10 of the molar value.
Listed next: entries and their corresponding pKi.

Example compounds with recorded pKi:
compound	observedResult
CCCn1c(=O)c2[nH]c(-c3cnn(CC(=O)O)c3)nc2n2ccnc12 [Example H1]	7.00 to 7.52
CCCn1c(=O)c2[nH]c(-c3cnn(CC)c3)nc2n2ccnc12 [Example B10]	> 8.00
CCCn1c(=O)c2[nH]c(-c3cnn(CCN(C)C)c3)nc2n2ccnc12 [Example B12]	7.52 to 8.00
CCCn1c(=O)c2[nH]c(-c3cnn(Cc4cccc(C(=O)O)c4)c3)nc2n2ccnc12 [Example G1]	> 8.00
CCCn1c(=O)c2[nH]c(-c3cnn(CC4CC(=O)N(c5cncc(C(F)(F)F)c5)C4)c3)nc2n2ccnc12 (centres unmarked) [Example C2]	> 8.00
CCCn1c(=O)c2[nH]c(-c3cnn(Cc4cccc(C#N)c4)c3)nc2n2ccnc12 [Example B7]	> 8.00
CCCn1c(=O)c2[nH]c(-c3cnn(CC#Cc4cccc(OC(F)(F)F)c4)c3)nc2n2ccnc12 [Example B3]	> 8.00

IN: Give its pKi value. Item: CCCn1c(=O)c2[nH]c(-c3cnn(CC(=O)N(C)C)c3)nc2n2ccnc12 [Example B14]
OUT: > 8.00

====

Listed next: entries and their corresponding Ki.
Target: A2A adenosine receptor (Homo sapiens, UniProt P29274)
Sequence (P29274 whole entry): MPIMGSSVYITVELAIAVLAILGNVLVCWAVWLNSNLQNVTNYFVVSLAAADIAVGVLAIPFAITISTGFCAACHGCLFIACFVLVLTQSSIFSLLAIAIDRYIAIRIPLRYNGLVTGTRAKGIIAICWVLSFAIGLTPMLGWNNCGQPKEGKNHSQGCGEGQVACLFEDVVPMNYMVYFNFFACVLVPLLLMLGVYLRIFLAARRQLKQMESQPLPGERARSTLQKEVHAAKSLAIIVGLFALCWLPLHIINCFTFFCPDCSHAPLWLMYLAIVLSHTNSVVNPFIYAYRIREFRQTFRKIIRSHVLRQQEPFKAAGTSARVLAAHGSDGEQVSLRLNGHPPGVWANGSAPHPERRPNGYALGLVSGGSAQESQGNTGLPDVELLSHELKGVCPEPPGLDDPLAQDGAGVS
Assay: cAMP assay for adenosine receptor (HTRF), HEK-A2A
Settings: HEK-A2A cells, agonist 10 nM CGS-21680, Rolipram 20 μM, read-out: A2A Functional Ki

Example molecules with recorded Ki:
molecule	system	Ki
Cn1c(=O)c2[nH]c(-c3cnn(Cc4cccc(C(F)(F)F)c4)c3)nc2n2ccnc12 [Example A3]	A2A adenosine receptor (Homo sapiens, UniProt P29274)	10 to 30 nM
CCCn1c(=O)c2[nH]c(-c3cnn(CC#Cc4cccc(C(=O)OCC)c4)c3)nc2n2ccnc12 [Example B2]	A2A adenosine receptor (Homo sapiens, UniProt P29274)	10 to 30 nM
CCCn1c(=O)c2[nH]c(-c3cnn(CC4CC(=O)N(c5cncc(C(F)(F)F)c5)C4)c3)nc2n2ccnc12 (stereo not shown) [Example C2]	A2A adenosine receptor (Homo sapiens, UniProt P29274)	30 to 100 nM
CCCn1c(=O)c2[nH]c(-c3cnn(C(C)C)c3)nc2n2ccnc12 [Example B8]	A2A adenosine receptor (Homo sapiens, UniProt P29274)	10 to 30 nM
CCCn1c(=O)c2[nH]c(-c3cnn(CC(O)CO)c3)nc2n2ccnc12 (stereo not shown) [Example J1]	A2A adenosine receptor (Homo sapiens, UniProt P29274)	30 to 100 nM

IN: Give its Ki value. Item: CCCn1c(=O)c2[nH]c(-c3cnn(CCc4cccc(F)c4)c3)nc2n2ccnc12 [Example A5]
OUT: 30 to 100 nM

IN: Follow-up item: CCCn1cc(-c2nc3c([nH]2)c(=O)n(CCC)c2nccn32)cn1 [Example B13]
OUT: < 10 nM

IN: Follow-up item: CCCCn1cc(-c2nc3c([nH]2)c(=O)n(CCC)c2nccn32)cn1 [Example B9]
OUT: 10 to 30 nM

IN: Follow-up item: CCCn1c(=O)c2[nH]c(-c3cnn(Cc4cccc(CO)c4)c3)nc2n2ccnc12 [Example E1]
OUT: < 10 nM

IN: Follow-up item: CCCn1c(=O)c2[nH]c(-c3cnn(CC#Cc4cccc(OC(F)(F)F)c4)c3)nc2n2ccnc12 [Example B3]
OUT: 10 to 30 nM

====

Listed next: entries and their corresponding Ki.
Target: A2B adenosine receptor (Homo sapiens)
Experiment: cAMP assay for adenosine receptor (HTRF), HEK-A2B
Conditions: HEK-A2B cells, agonist 70 nM NECA, read-out: A2B Functional Ki

Example molecules with recorded Ki:
molecule	Ki
CCCn1c(=O)c2[nH]c(-c3cnn(CC(O)CO)c3)nc2n2ccnc12 (stereo not shown)	30 to 100 nM
CCCn1c(=O)c2[nH]c(-c3cnn(Cc4cccc(CO)c4)c3)nc2n2ccnc12 [Example E1]	< 10 nM
CCCn1c(=O)c2[nH]c(-c3cnn(C(C)(C)CC)c3)nc2n2ccnc12	< 10 nM

Alright, here's another molecule for you.
IN: Give its Ki value. Item: CCCn1c(=O)c2[nH]c(-c3cnn(CC(C)(C)C)c3)nc2n2ccnc12
OUT: < 10 nM

====

Listed next: entries and their corresponding pKi.
Target: UniProt P29275
Test: cAMP assay for adenosine receptor (HTRF), HEK-A2B
Settings: HEK-A2B cells, agonist 70 nM NECA, read-out: A2B Functional Ki
pKi: −log10 of the molar value.

Example compounds with recorded pKi:
compound	reportedProperty	observedResult
CCCn1c(=O)c2[nH]c(-c3cnn(Cc4cccc(C(F)(F)F)c4)c3)nc2n2ccnc12	pKi	> 8.00
CCCn1c(=O)c2[nH]c(-c3cnn(CCN4CCCCC4)c3)nc2n2ccnc12 [Example D1]	pKi	> 8.00

IN: Give its pKi value. Item: CCCn1c(=O)c2[nH]c(-c3cnn(Cc4cccc(C(C)(C)O)c4)c3)nc2n2ccnc12
OUT: > 8.00

IN: Follow-up item: CCCn1c(=O)c2[nH]c(-c3cnn(CC#Cc4cccc(C(=O)OCC)c4)c3)nc2n2ccnc12
OUT: > 8.00

IN: Follow-up item: CCCn1cc(-c2nc3c([nH]2)c(=O)n(CCC)c2nccn32)cn1
OUT: > 8.00

IN: Follow-up item: CCCn1c(=O)c2[nH]c(-c3cnn(CC#Cc4cc(C(=O)OCC)ccc4C)c3)nc2n2ccnc12
OUT: > 8.00

IN: Follow-up item: Cn1c(=O)c2[nH]c(-c3cnn(Cc4cccc(C(F)(F)F)c4)c3)nc2n2ccnc12
OUT: > 8.00

IN: Follow-up item: CCCn1c(=O)c2[nH]c(-c3cnn(C(C)CC)c3)nc2n2ccnc12 (centres unmarked)
OUT: > 8.00
